Recorded values, source ChEMBL document CHEMBL3352454.

The reader will find reported Ki values listed item by item below.
- assay_method_text: Displacement of [3H]DTG from rat liver sigma2 receptor by scintillation counting analysis in presence of pentazocine
property: Ki

COc1cc2c(cc1OC)CN(CCCCn1c3ccccc3c3ccccc31)CC2 = 0.04 nM
COc1cccc2c1CCCC2CCC(=O)N1CCC2(CC1)OCc1ccccc12 (configuration not stated) = 3210 nM
COc1cc2c(cc1OC)C(=O)N(CCCCn1c3ccccc3c3ccccc31)CC2 = > 10000 nM
COc1cc2c(cc1OC)CN(C(=O)CCC1CCCc3c(OC)cccc31)CC2 (configuration not stated) = > 10000 nM
COc1cccc2c1CCCC2CCC(=O)N1CCC(c2ccc(F)cc2)CC1 (configuration not stated) = 6520 nM
COc1cc2c(cc1OC)CN(CC(=O)NCc1cn(-c3ccc(F)cc3)c3ccccc13)CC2 = 1620 nM
COc1cc2c(cc1OC)CN(CC(=O)N[C@@H]1CCCc3c(OC)cccc31)CC2 = 1950 nM
COc1cc2c(cc1OC)CN(C(=O)CCCc1cn(-c3ccc(F)cc3)c3ccccc13)CC2 = > 10000 nM
COc1cccc2c1CCCC2CCCN1CCC(c2ccc(F)cc2)CC1 (configuration not stated) = 22.6 nM
COc1cccc2c1CCCC2CCCN1CCC(C2CCCCC2)CC1 (configuration not stated) = 18.8 nM
COc1cc2c(cc1OC)CN(CCCC(=O)n1c3ccccc3c3ccccc31)CC2 = > 10000 nM
COc1cccc2c1CCCC2CCCN1CCC2(CC1)OCc1ccccc12 (configuration not stated) = 40.6 nM
COc1cc2c(cc1OC)CN(CC(=O)N[C@H]1CCCc3c(OC)cccc31)CC2 = 1760 nM
COc1cc2c(cc1OC)CN(CC(=O)NC1CCCc3c(OC)cccc31)CC2 (racemic) = 1800 nM
COc1cccc2c1CCCC2CCC(=O)N1CCC(C2CCCCC2)CC1 (configuration not stated) = > 10000 nM
COc1cc2c(cc1OC)CN(CCCCc1cn(-c3ccc(F)cc3)c3ccccc13)CC2 = 5.34 nM
COc1cc2c(cc1OC)C(=O)N(CCCCc1cn(-c3ccc(F)cc3)c3ccccc13)CC2 = > 10000 nM

###

- system_name: Sigma non-opioid intracellular receptor 1 (Cavia porcellus)
- Sequence (Q60492 whole entry): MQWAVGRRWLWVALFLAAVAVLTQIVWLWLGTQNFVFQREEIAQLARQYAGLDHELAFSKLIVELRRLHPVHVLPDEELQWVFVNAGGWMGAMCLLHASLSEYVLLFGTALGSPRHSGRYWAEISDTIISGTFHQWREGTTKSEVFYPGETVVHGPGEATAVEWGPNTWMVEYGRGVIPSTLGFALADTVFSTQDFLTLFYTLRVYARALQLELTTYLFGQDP
- assay_method_text: Displacement of [3H]-(+)-pentazocine from guinea pig brain sigma1 receptor by scintillation counting analysis
property: Ki

COc1cc2c(cc1OC)CN(C(=O)CCCc1cn(-c3ccc(F)cc3)c3ccccc13)CC2 = > 5 µM
COc1cccc2c1CCCC2CCC(=O)N1CCC(c2ccc(F)cc2)CC1 (centres undefined) = 2.93 µM
COc1cc2c(cc1OC)CN(CC(=O)NC1CCCc3c(OC)cccc31)CC2 (racemic) = > 5 µM
COc1cc2c(cc1OC)CN(CCCCn1c3ccccc3c3ccccc31)CC2 = 2.19 µM
COc1cc2c(cc1OC)CN(CCCCc1cn(-c3ccc(F)cc3)c3ccccc13)CC2 = 1.39 µM
COc1cc2c(cc1OC)CN(C(=O)CCC1CCCc3c(OC)cccc31)CC2 (centres undefined) = > 5 µM
COc1cc2c(cc1OC)CN(CC(=O)N[C@H]1CCCc3c(OC)cccc31)CC2 = > 5 µM
COc1cc2c(cc1OC)C(=O)N(CCCCc1cn(-c3ccc(F)cc3)c3ccccc13)CC2 = > 5 µM
COc1cc2c(cc1OC)CN(CC(=O)NCc1cn(-c3ccc(F)cc3)c3ccccc13)CC2 = > 5 µM
COc1cc2c(cc1OC)CN(CCCC(=O)n1c3ccccc3c3ccccc31)CC2 = > 5 µM
COc1cccc2c1CCCC2CCC(=O)N1CCC2(CC1)OCc1ccccc12 (centres undefined) = 0.26 µM
COc1cccc2c1CCCC2CCC(=O)N1CCC(C2CCCCC2)CC1 (centres undefined) = > 5 µM
COc1cc2c(cc1OC)C(=O)N(CCCCn1c3ccccc3c3ccccc31)CC2 = > 5 µM
COc1cc2c(cc1OC)CN(CC(=O)N[C@@H]1CCCc3c(OC)cccc31)CC2 = > 5 µM
